tested on: HeLa; assay: Cytotoxicity against human HeLa cells assessed as decrease in cell viability after 24 hrs by MTT assay; format: functional, cell-based
READOUT_NAME: pIC50
Kindly note that pIC50 refers to -log10 of the concentration in mol/L and answer with the value alone.

compound="COc1ccccc1CN1O[C@@H](CO)C[C@@H]1c1ccc2ccc3cccnc3c2n1 (relative stereo)" readout_name=pIC50 result_value=4.40

Could you now consider this next compound?
[ask] Name the recorded pIC50 for COc1ccccc1CN1O[C@H](CO)C[C@@H]1c1ccc2ccc3cccnc3c2n1 (relative stereo) .
[reply] 4.88

###

tested on: 184B5; assay: Cytotoxicity against human 184B5 cells assessed as decrease in cell viability after 24 hrs by MTT assay; type: cell-based; settings: 184B5, 24 h
READOUT_NAME: pIC50
Worth noting: pIC50 values are minus log10 of concentrations stated in mol/L.

[ask] Request the reported pIC50 associated with COc1ccccc1CN1O[C@@H](CO)C[C@@H]1c1ccc2ccc3cccnc3c2n1 (relative stereo)
[reply] 3.42

[ask] Find the recorded pIC50 belonging to COc1ccccc1CN1O[C@H](CO)C[C@@H]1c1ccc2ccc3cccnc3c2n1 (relative stereo) and report it.
[reply] 3.49
